target of assay: Endoribonuclease toxin MazF (Escherichia coli K-12, UniProt P0AE70)
Sequence (P0AE70 whole entry): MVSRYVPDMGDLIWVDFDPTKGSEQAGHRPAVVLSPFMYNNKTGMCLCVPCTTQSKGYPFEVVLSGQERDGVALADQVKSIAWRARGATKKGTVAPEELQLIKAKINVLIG
protocol summary: fluorescent RNA oligo signal without MazF, dose response, counter-screen for MazEF activator project, biochemical, fluorescence, single-stranded RNase substrate (AID 588502)
Format: functional
The source made the active and inactive calls. Rule as the data show it: active = EC50 of 20 µM or less and inactive = more.
Thanks in advance; please answer with one of these: active, inactive

Field: example entries. Status: answers known.
# chemical string, class name
data = [
    ("CC/C(C)=N/NS(=O)(=O)c1ccc(C)c([N+](=O)[O-])c1", "active"),
    ("CN(C)CCCn1c2c3ccccc3ccc2c2oc(=O)c3ccccc3c21", "inactive"),
]

Task: Would you mind telling me which call this test gave CCOc1ccc2c(c1)c1nc3ccccc3nc1n2C ?
Output: inactive

Task: Would you mind telling me which call this test gave Oc1ccccc1-c1nc(NCc2ccccc2)c2ccccc2n1 ?
Output: inactive

Task: Would you mind telling me which call this test gave Cc1cccc2c3nc4ccccc4nc3n(C)c12 ?
Output: inactive
